Reference source: patent US20220167618A1

Below, each of the compounds is paired with its reported melting point value.

{"compound": "CC(NC(=O)c1cc(C(F)(F)F)nc(C2(C#N)CC2)c1)c1nc(Br)nn1-c1ccc(OCC(F)(F)F)cn1 (centres unmarked) [Compound P33]", "melting point": "82 to 84 °C"}
{"compound": "CC(NC(=O)c1cc(C(F)(F)F)cc(C(F)(F)C2CC2)c1)c1nc(Br)nn1-c1ccc(OCC(F)F)cn1 (centres unmarked) [Compound P31]", "melting point": "140 to 142 °C"}
{"compound": "CC(NC(=O)c1cc(C(F)(F)F)nc(C2(C#N)CC2)c1)c1nc(Br)nn1-c1ccc(OCC(F)F)cn1 (centres unmarked) [Compound P32]", "melting point": "147 to 149 °C"}
{"compound": "CC(NC(=O)c1cc(C(F)(F)F)nc(C2(C#N)CC2)c1)c1nc(Br)nn1-c1ncc(OCC(F)(F)F)cn1 (centres unmarked) [Compound P34]", "melting point": "157 to 159 °C"}

# context switch: different compound, same melting point
-- ask Suppose we examine the compound CC(NC(=O)c1cc(C(F)(F)F)nc(C2(C#N)CC2)c1)c1nc(Br)nn1-c1ccc(OC(F)F)cn1 (centres unmarked) [Compound P30] ; what melting point value has been reported?
-- reply 152 to 154 °C

====

Below, each of the compounds is paired with its reported percent control (mortality, anti-feedant or growth inhibition) at 200 ppm value.
Tested on: Spodoptera littoralis (Egyptian Cotton Leaf Worm)
Experiment: Example B9: Spodoptera littoralis (Egyptian cotton leaf worm), sprayed cotton leaf discs
Type: in vivo
Details: foliar, 72 h, application rate 200 ppm, L1 larvae, 3 days after infestation, read-out: control in at least one of the three categories (mortality, anto-feedant or growth inhibition)

Worked examples follow.
{"compound": "CC(NC(=O)c1cc(C2CC2)cc(C(F)(F)F)c1)c1nc(Br)nn1-c1ccc(C#N)cn1 (stereo not shown)", "result": "≥ 80%"}
{"compound": "CC(NC(=O)c1cc(C(F)(F)F)cc(C2(C#N)CC2)c1)c1nc(Br)nn1-c1ncc(OCC(F)(F)F)cn1 (stereo not shown)", "result": "≥ 80%"}
{"compound": "CC(NC(=O)c1cc(C(F)(F)F)cc(C2(C#N)CC2)c1)c1nc(Br)nn1-c1ccc(C#N)cn1 (stereo not shown) [Compound P1]", "result": "≥ 80%"}

# context switch: different compound, same percent control (mortality, anti-feedant or growth inhibition) at 200 ppm
-- ask Suppose we examine the compound CC(NC(=O)c1cc(C(F)(F)F)cc(C2(C#N)CC2)c1)c1nc(Br)nn1-c1ccc(OCC(F)(F)F)cn1 (stereo not shown) ; what percent control (mortality, anti-feedant or growth inhibition) at 200 ppm value has been reported?
-- reply ≥ 80%
